Assay: in vitro
Settings: male, CD-1, mouse, plasma, Plasma stability % Remaining
Kindly apply the following: condition met if remaining at 2 h, 2 μM is less than 90%, condition not met in every other case.

# Given smiles, Class label
records = [
    ("CN(C)C(=S)SCC1=C(C(=O)O)N2C(=O)[C@@H](NC(=O)Cc3cccs3)[C@H]2SC1", "condition not met"),
    ("O=C(Cc1cccs1)N[C@@H]1C(=O)N2C(C(=O)O)=C(CSc3cccc[n+]3[O-])CS[C@H]12", "condition met"),
    ("O=C(O)C1=C(CSc2cccc[n+]2[O-])CS[C@@H]2[C@H](NC(=O)/C(=N\\Oc3ccccc3)c3ccco3)C(=O)N12", "condition met"),
]

====

Listed here: items and their measured Cmax.
Test: in vivo
Conditions: DHP-1 knockout, mouse, sc, 300 mg/kg
Experimental readout: Cmax (ng/mL)

# Compound, Test result
measured = [
    ("O=C(CCCC(NC(=O)c1ccc(Cl)cc1Cl)C(=O)O)N[C@@H]1C(=O)N2C(C(=O)O)=C(CSc3cccc[n+]3[O-])CS[C@H]12 (some centres unmarked)", 29900),
    ("O=C(Cc1cccs1)N[C@@H]1C(=O)N2C(C(=O)O)=C(CSc3cccc[n+]3[O-])CS[C@H]12", 29800),
    ("O=C(Cc1ccc(C2=NCCN2)cc1)N[C@@H]1C(=O)N2C(C(=O)O)=C(CSc3nncs3)CS[C@H]12", 28700),
    ("NC(C(=O)N[C@@H]1C(=O)N2C(C(=O)O)=C(CSc3cccc[n+]3[O-])CS[C@H]12)c1ccc(O)cc1 (some centres unmarked)", 22200),
    ("CN(C)C(=S)SCC1=C(C(=O)O)N2C(=O)[C@@H](NC(=O)Cc3cccs3)[C@H]2SC1", 2650),
]

====

Experiment: In vitro plasma stability, human plasma
Conditions: human, plasma, Plasma stability % Remaining, 37 °C, time point 120 min
Experimental readout: remaining at 2 h, 2 μM (%)

# Molecule, Test result
measured = [
    ("C[C@@H](O)[C@H]1C(=O)N2C(C(=O)O)=C(S[C@@H]3CN[C@H](C(=O)N(C)C)C3)[C@H](C)[C@H]12 [Meropenem, reference compound]", 70.6),
    ("C[C@@H](O)[C@H]1C(=O)N2C(C(=O)O)=C(S[C@@H]3CN[C@H](C(=O)Nc4cccc(C(=O)O)c4)C3)[C@H](C)[C@H]12 [Ertapenem, reference compound]", 77.5),
]

====

Experiment: In vitro plasma stability, beagle dog plasma
Settings: 2 μM, 37 °C, time point 120 min

# Compound, Unit tag, Plasma stability % Remaining, Dog
rows = [
    ("CCc1nnc(SCC2=C(C(=O)O)N3C(=O)[C@@H](NC(=O)Cc4ccc(C5=NCCCN5)cc4)[C@H]3SC2)s1 [TBBL-0000317]", "%", 31.5),
    ("NCc1ccccc1CC(=O)N[C@@H]1C(=O)N2C(C(=O)O)=C(CSc3nnnn3CCO)CS[C@H]12 [TBBL-0000656]", "%", 74.7),
    ("CCCc1nnc(SCC2=C(C(=O)O)N3C(=O)[C@@H](NC(=O)Cc4ccc(C(=N)N)cc4)[C@H]3SC2)s1 [TBBL-0000314]", "%", 77.0),
    ("CON=C(C(=O)N[C@@H]1C(=O)N2C(C(=O)O)=C(CSc3cccc[n+]3[O-])CS[C@H]12)c1csc(N)n1 [TBBL-0000539]", "%", 79.7),
    ("Cn1c(SCC2=C(C(=O)O)N3C(=O)[C@@H](NC(=O)Cc4ccccc4CN)[C@H]3SC2)nnc(O)c1=O [TBBL-0000460]", "%", 73.7),
    ("NCCSC=CC1=C(C(=O)O)N2C(=O)C(NC(=O)CSc3ccc(Cl)c(Cl)c3)C2SC1 (centres unmarked) [TBBL-0000306]", "%", 16.6),
    ("CNCc1ccccc1CC(=O)N[C@@H]1C(=O)N2C(C(=O)O)=C(CSc3nnnn3C)CS[C@H]12 [TBBL-0000468]", "%", 77.2),
    ("CCc1nnc(SCC2=C(C(=O)O)N3C(=O)[C@@H](NC(=O)Cc4ccc(C5=NCCN5)cc4)[C@H]3SC2)s1 [TBBL-0000310]", "%", 79.6),
    ("O=C(O)C1=C(CSc2cccc[n+]2[O-])CS[C@@H]2[C@H](NC(=O)C(F)c3ccccc3)C(=O)N12 (some centres unmarked) [TBBL-0000004]", "%", 64.1),
    ("CC=CC(=O)OCC1=C(C(=O)O)N2C(=O)[C@@H](NC(=O)C(=NO)c3cccs3)[C@H]2SC1 [TBBL-0000058]", "%", 81.2),
    ("Cn1nnnc1SCC1=C(C(=O)O)N2C(=O)[C@@H](NC(=O)Cc3ccc(C4=NCCCN4)cc3)[C@H]2SC1 [TBBL-0000309]", "%", 77.8),
]

====

Listed here: items and their measured Tmax.
Experiment: in vivo
Conditions: DHP-1 knockout, mouse, sc, 300 mg/kg

# Molecule, Tmax
rows = [
    ("O=C(CCCC(NC(=O)c1ccc(Cl)cc1Cl)C(=O)O)N[C@@H]1C(=O)N2C(C(=O)O)=C(CSc3cccc[n+]3[O-])CS[C@H]12 (some centres unmarked) [TBBL-0000552]", "1 to 2 h"),
    ("CN(C)C(=S)SCC1=C(C(=O)O)N2C(=O)[C@@H](NC(=O)Cc3cccs3)[C@H]2SC1 [TBBL-0000009]", "2 to 4 h"),
    ("NC(C(=O)N[C@@H]1C(=O)N2C(C(=O)O)=C(CSc3cccc[n+]3[O-])CS[C@H]12)c1ccc(O)cc1 (some centres unmarked) [TBBL-0000652]", "1 to 2 h"),
    ("O=C(Cc1cccs1)N[C@@H]1C(=O)N2C(C(=O)O)=C(CSc3cccc[n+]3[O-])CS[C@H]12 [TBBL-0000001]", "1 h"),
    ("O=C(Cc1ccc(C2=NCCN2)cc1)N[C@@H]1C(=O)N2C(C(=O)O)=C(CSc3nncs3)CS[C@H]12 [TBBL-0000316]", "1 to 2 h"),
]

====

Experiment: In vitro plasma stability, SD rat plasma
Details: SD, rat, plasma, Plasma stability % Remaining, 37 °C, time point 120 min
Listed here: items and their measured remaining at 2 h, 2 μM.
Experimental readout: remaining at 2 h, 2 μM (%)

# Compound, Experimental readout, Unit tag, Test result
records = [
    ("C[C@@H](O)[C@H]1C(=O)N2C(C(=O)O)=C(S[C@@H]3CN[C@H](C(=O)Nc4cccc(C(=O)O)c4)C3)[C@H](C)[C@H]12 [Ertapenem, reference compound]", "remaining at 2 h, 2 μM", "%", 69.1),
    ("C[C@@H](O)[C@H]1C(=O)N2C(C(=O)O)=C(S[C@@H]3CN[C@H](C(=O)N(C)C)C3)[C@H](C)[C@H]12 [Meropenem, reference compound]", "remaining at 2 h, 2 μM", "%", 57.7),
]

====

System: Mtb H37Rv
Assay: MIC90 against replicating (R) Mtb H37Rv, with or without clavulanate
Type: cell-based, Mycobacterium tuberculosis
Settings: clavulanate 4 μg/mL, Table S4
Kindly return met if reported Mtb H37Rv R + CLAV (MIC90) is no lower than 1 µM; return not met if it is lower.

# Compound, Class label
measured = [
    ("CC(O)Cn1nnnc1SCC1=C(C(=O)O)N2C(=O)[C@@H](NC(=O)Cc3csc(=O)s3)[C@H]2SC1 (stereo partly shown)", "met"),
    ("CN(C)C(=S)SCC1=C(C(=O)O)N2C(=O)[C@@H](NC(=O)Cc3cccs3)[C@H]2SC1", "met"),
    ("Cn1nnnc1SCC1=C(C(=O)O)N2C(=O)[C@@H](NC(=O)Cc3ccc(C4=NCCCN4)cc3)[C@H]2SC1", "not met"),
    ("N=C(N)SCc1ccccc1SC1=C(C(=O)O)N2C(=O)[C@@H](NC(=O)C(N)c3ccccc3)[C@H]2CC1 (stereo partly shown)", "met"),
    ("O=C(O)C1=C(CSc2cccc[n+]2[O-])CS[C@@H]2[C@H](NC(=O)C(F)c3ccccc3)C(=O)N12 (stereo partly shown)", "met"),
    ("CCn1nnnc1SCC1=C(C(=O)O)N2C(=O)[C@@H](NC(=O)Cc3ccc(C4=NCCN4)cc3)[C@H]2SC1", "not met"),
    ("O=C(O)C1=C(CSc2cccc[n+]2[O-])CS[C@@H]2[C@H](NC(=O)/C(=N\\Oc3ccccc3)c3ccco3)C(=O)N12", "met"),
]

====

Listed here: items and their measured remaining at 24 h, 10 μM.
Assay: Stability in fasted simulated intestinal fluid (FaSSIF)
Settings: fasted simulated intestinal fluid (FaSSIF), pH 6.5, FaSSIF Stability, % remaining, 24h, pH 6.5, room temperature

# Molecule, remaining at 24 h, 10 μM
data = [
    ("C[C@@H](O)[C@H]1C(=O)N2C(C(=O)O)=C(S[C@@H]3CN[C@H](C(=O)Nc4cccc(C(=O)O)c4)C3)[C@H](C)[C@H]12 [Ertapenem, reference compound]", "85.8%"),
    ("C[C@@H](O)[C@H]1C(=O)N2C(C(=O)O)=C(S[C@@H]3CN[C@H](C(=O)N(C)C)C3)[C@H](C)[C@H]12 [Meropenem, reference compound]", "76.8%"),
]
